Molecular target: p38 MAPKα isoform (MAPK14) (Homo sapiens, UniProt Q16539)
Construct: purchased Life Technologies
Sequence (Q16539 whole entry, canonical isoform): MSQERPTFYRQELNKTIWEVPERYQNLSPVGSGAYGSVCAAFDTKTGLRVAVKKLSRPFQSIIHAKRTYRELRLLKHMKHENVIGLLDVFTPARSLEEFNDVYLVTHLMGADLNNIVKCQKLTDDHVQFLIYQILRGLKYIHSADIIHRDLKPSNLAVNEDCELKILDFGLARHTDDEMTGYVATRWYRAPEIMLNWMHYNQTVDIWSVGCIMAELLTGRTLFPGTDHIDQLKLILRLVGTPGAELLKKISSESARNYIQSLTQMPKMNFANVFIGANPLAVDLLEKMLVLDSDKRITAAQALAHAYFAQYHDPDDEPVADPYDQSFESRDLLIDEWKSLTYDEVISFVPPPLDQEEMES
Assay: p38 MAPKα enzyme inhibition (Z-LYTE FRET)
Type: biochemical
Conditions: Table 2B, unit inferred; read-out: p38 MAPKα (Enzyme Profile)
Protocol: The enzyme inhibitory activities of compounds disclosed herein were determined by FRET using synthetic peptides labelled with both donor and acceptor fluorophores (Z-LYTE, Life Technologies, Paisley, UK). The inhibitory activities of compounds of the invention against the p38 MAPKα isoform (MAPK14: Life Technologies), were evaluated indirectly by determining the level of activation/phosphorylation of the target peptide of the p38 MAPKα down-stream molecule, MAPKAP-K2. […]
MEASUREMENT LABEL: IC50 (nM)

Study these solved cases before continuing.
>>> print(df.to_string())
                         structure_notation  value_units  result
0  CCc1cnc(Nc2cc(COc3ccc(NC(=O)Nc4cc(C(C)(C)C)nn4-c4cccc(C)c4)c4ccccc34)ccn2)cn1           nM      36
1  Cc1ccc(-n2nc(C(C)(C)C)cc2NC(=O)Nc2ccc(OCc3ccnc(Nc4cnc(C(=O)N5CC[C@@H](F)C5)cn4)c3)c3ccccc23)cc1           nM      18
2  COCC#Cc1cncc(Nc2cc(COc3ccc(NC(=O)Nc4cc(C(C)(C)C)nn4-c4ccc(C)cc4)c4ccccc34)ccn2)n1           nM     435

(A) COC1CN(C(=O)c2cnc(Nc3cc(COc4ccc(NC(=O)Nc5cc(C(C)(C)C)nn5-c5ccc(C)cc5)c5ccccc45)ccn3)cn2)C1
(B) COCCc1cncc(Nc2cc(COc3ccc(NC(=O)Nc4cc(C(C)(C)C)nn4-c4ccc(C)cc4)c4ccccc34)ccn2)n1
(C) CCc1cncc(Nc2cc(COc3ccc(NC(=O)Nc4cc(C(C)(C)C)nn4-c4ccc(C)c(OC)c4)c4ccccc34)ccn2)n1
Q. Order the records, beginning with the lowest IC50 and ending with the highest. The response must list the labels following the requested ordering.
A. B, A, C
(B: 10 nM, A: 19 nM, C: 70 nM)

(a) Cc1ccc(-n2nc(C(C)(C)C)cc2NC(=O)Nc2ccc(OCc3ccnc(Nc4cncc(NC(C)C)n4)c3)c3ccccc23)cc1
(b) CCc1ccc(-n2nc(C(C)(C)C)cc2NC(=O)Nc2ccc(OCc3ccnc(Nc4cnc(C)c(C)n4)c3)c3ccccc23)cc1
(c) Cc1ccc(-n2nc(C(C)(C)C)cc2NC(=O)Nc2ccc(OCc3ccnc(Nc4cnc(C(=O)N5CCC(O)CC5)cn4)c3)c3ccccc23)cc1
Q. Order the records, beginning with the lowest IC50 and ending with the highest. The response must list the labels following the requested ordering.
A. c, a, b
(c: 6.8 nM, a: 16 nM, b: 81 nM)

---

Biological target: p38 MAPKα isoform (MAPK14) (Homo sapiens, UniProt Q16539)
Construct: purchased Life Technologies
Experiment: p38 MAPKα enzyme inhibition (Z-LYTE FRET)
Assay type: biochemical
Settings: Table 2B, unit inferred; read-out: p38 MAPKα (Enzyme Profile)
MEASUREMENT LABEL: IC50 (nM)

Study these solved cases before continuing.
>>> df
                                   compound  result
0  COC1CCN(C(=O)c2cnc(Nc3cc(COc4ccc(NC(=O)Nc5cc(C(C)(C)C)nn5-c5cccc(C)c5)c5ccccc45)ccn3)cn2)CC1 [Example 206]      22
1  Cc1ccc(-n2nc(C(C)(C)C)cc2NC(=O)Nc2ccc(OCc3ccnc(Nc4cncc(N(C)C)n4)c3)c3ccccc23)s1 [Example 111]      33
2  CO[C@H]1CCN(C(=O)c2cnc(Nc3cc(COc4ccc(NC(=O)Nc5cc(C(C)(C)C)nn5-c5ccc(C)cc5)c5ccccc45)ccn3)cn2)C1 [Example 67]      39
3  COCc1ccc(-n2nc(C(C)(C)C)cc2NC(=O)Nc2ccc(OCc3ccnc(Nc4cnc(C(=O)N5CCCC5)cn4)c3)c3ccccc23)cc1 [Example 217]      17
4  CCOc1cncc(Nc2cc(COc3ccc(NC(=O)Nc4cc(C(C)(C)C)nn4-c4ccc(C)cc4)c4ccccc34)ccn2)n1 [Example 116]      23
5  CC(C)(C)c1cc(NC(=O)Nc2ccc(OCc3ccnc(Nc4cnc(C(=O)N5CCCC5)cn4)c3)c3ccccc23)n(-c2cccc(F)c2)n1 [Example 202]      19
6  CNc1cncc(Nc2cc(COc3ccc(NC(=O)Nc4cc(C(C)(C)C)nn4-c4ccc(C)cc4)c4ccccc34)ccn2)n1 [Example 120]     4.8
7  Cc1ccc(-n2nc(C(C)(C)C)cc2NC(=O)Nc2ccc(OCc3ccnc(Nc4cnc(C(=O)N5CC[C@@H](O)C5)cn4)c3)c3ccccc23)cc1 [Example 162]     4.7

(1) Cc1ccc(-n2nc(C(C)(C)C)cc2NC(=O)Nc2ccc(OCc3ccnc(Nc4cncc(CCCO)n4)c3)c3ccccc23)cc1 [Example 155]
(2) Cc1ccc(-n2nc(C(C)(C)C)cc2NC(=O)Nc2ccc(OCc3ccnc(Nc4cnc(C(=O)NCCCO)cn4)c3)c3ccccc23)cc1 [Example 134]
(3) COc1cc(C)cc(-n2nc(C(C)(C)C)cc2NC(=O)Nc2ccc(OCc3ccnc(Nc4cnc(C(=O)N5CCCC5)cn4)c3)c3ccccc23)c1 [Example 227]
(4) COCc1cnc(Nc2cc(COc3ccc(NC(=O)Nc4cc(C(C)(C)C)nn4-c4ccc(C)cc4)c4ccccc34)ccn2)cn1 [Example 190]
(5) COc1cncc(Nc2cc(COc3ccc(NC(=O)Nc4cc(C(C)(C)C)nn4-c4ccc(C)s4)c4ccccc34)ccn2)n1 [Example 109]
Q. Falling order of IC50, please. The response must list the labels following the requested ordering.
A. 5, 3, 4, 1, 2
(5: 115 nM, 3: 43 nM, 4: 23 nM, 1: 8.9 nM, 2: 3.8 nM)

---

Target: p38MAPKγ (MAPK12) (Homo sapiens)
Construct: purchased Life Technologies
Sequence (P53778 1-367): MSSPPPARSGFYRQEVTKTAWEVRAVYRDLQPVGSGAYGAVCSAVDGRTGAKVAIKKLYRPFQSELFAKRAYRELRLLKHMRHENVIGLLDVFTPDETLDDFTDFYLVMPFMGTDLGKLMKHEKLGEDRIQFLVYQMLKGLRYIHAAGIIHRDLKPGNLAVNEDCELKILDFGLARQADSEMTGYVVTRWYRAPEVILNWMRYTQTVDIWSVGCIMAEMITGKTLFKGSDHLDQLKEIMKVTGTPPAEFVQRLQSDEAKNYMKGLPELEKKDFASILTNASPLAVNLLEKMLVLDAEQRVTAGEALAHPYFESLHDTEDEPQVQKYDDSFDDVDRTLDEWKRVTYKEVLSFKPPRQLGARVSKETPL
Assay: p38 MAPKγ enzyme inhibition (Z-LYTE FRET)
Type: biochemical
Conditions: Table 2A; read-out: IC50 Values for Enzyme Inhibition p38 MAPKγ
pIC50: −log10 of the molar value.
MEASUREMENT LABEL: pIC50

>>> df
                                   molecule                measurement_target  measurement_label  result
0  COCCNC(=O)c1cnc(Nc2cc(COc3ccc(NC(=O)Nc4cc(C(C)(C)C)nn4-c4ccc(C)cc4)c4ccccc34)ccn2)cn1 [Example 3]  p38MAPKγ (MAPK12) (Homo sapiens)              pIC50    6.65
1  COc1ccc(-n2nc(C(C)(C)C)cc2NC(=O)Nc2ccc(OCc3ccnc(Nc4cnc(CO)cn4)c3)c3ccccc23)cc1 [Example 23]  p38MAPKγ (MAPK12) (Homo sapiens)              pIC50    6.68

(a) Cc1ccc(-n2nc(C(C)(C)C)cc2NC(=O)Nc2ccc(OCc3ccnc(Nc4cncc(CC(N)=O)n4)c3)c3ccccc23)cc1 [Example 32]
(b) Cc1ccc(-n2nc(C(C)(C)C)cc2NC(=O)Nc2ccc(OCc3ccnc(Nc4cncc(C)n4)c3)c3ccccc23)cc1 [Example 20]
Q. Consider a and b . Which of these has its pIC50 at a higher number? Your answer should be the label of the entry you select.
A. a
(a: 7.43, b: 7.21)

---

pIC50: −log10 of the molar value.
This section lists pIC50 readings for c-Src (Homo sapiens, UniProt P12931).
MEASUREMENT LABEL: pIC50

Study these solved cases before continuing.
                         structure_notation  measurement_label  result
0  Cc1ccc(-n2nc(C(C)(C)C)cc2NC(=O)Nc2ccc(OCc3ccnc(Nc4cncc(CC(=O)N(C)C)n4)c3)c3ccccc23)cc1              pIC50    7.49
1  Cc1ccc(-n2nc(C(C)(C)C)cc2NC(=O)Nc2ccc(OCc3ccnc(Nc4cnccn4)c3)c3ccccc23)s1              pIC50    6.89

(1) COc1ccc(-n2nc(C(C)(C)C)cc2NC(=O)Nc2ccc(OCc3ccnc(Nc4cnc(CO)cn4)c3)c3ccccc23)cc1
(2) Cc1cccc(-n2nc(C(C)(C)C)cc2NC(=O)Nc2ccc(OCc3ccnc(Nc4cnccn4)c3)c3ccccc23)c1
Q. Consider 1 and 2 . Which of these has its pIC50 at a higher number? Your answer should be the label of the entry you select.
A. 1
